# MEASURED_ON: Nuclear receptor ROR-gamma (Mus musculus, UniProt P51450)
# Sequence (P51450 whole entry, the tested form may be a part): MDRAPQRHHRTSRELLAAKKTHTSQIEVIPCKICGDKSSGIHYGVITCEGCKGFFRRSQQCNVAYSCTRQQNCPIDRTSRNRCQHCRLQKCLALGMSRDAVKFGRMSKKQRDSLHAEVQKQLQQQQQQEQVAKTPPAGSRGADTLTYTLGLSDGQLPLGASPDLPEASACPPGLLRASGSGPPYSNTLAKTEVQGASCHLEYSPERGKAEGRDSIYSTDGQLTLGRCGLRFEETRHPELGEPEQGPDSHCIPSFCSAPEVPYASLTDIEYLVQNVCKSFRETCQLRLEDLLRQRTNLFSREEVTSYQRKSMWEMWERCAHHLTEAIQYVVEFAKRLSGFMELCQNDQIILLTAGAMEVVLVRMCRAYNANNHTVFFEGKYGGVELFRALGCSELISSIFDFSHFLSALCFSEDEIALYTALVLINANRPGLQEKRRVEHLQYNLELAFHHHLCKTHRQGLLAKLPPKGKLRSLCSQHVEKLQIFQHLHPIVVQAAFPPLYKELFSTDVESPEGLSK
# TEST_NAME: Inhibition of mouse RORgamma ligand binding domain (Isoleucine 251 to Lysine 516) expressed in CHOK1 cells incubated for 2 days by Gal4 luciferase reporter gene assay
EC50 strictly less than 400 nM = Criterion met. Otherwise Criterion not met.

The examples below pair each entry with its known result.
- CCn1c(CCC(=O)Nc2cccc3ccccc23)nnc1CC1CCCCC1: Criterion not met
- Cc1ccc(NC(=O)CCc2nnc(-c3cc(CC(C)C)on3)n2C2CC2)c(C)c1: Criterion met
- Cc1ccc(NC(=O)CCc2nnc([C@H]3C[C@@H](CC(C)C)C3)n2C2CC2)c(C)c1: Criterion met
- CCn1c(OCC(=O)Nc2cccc3ccccc23)nnc1C1Cc2ccccc2C1: Criterion not met

Read the next record carefully.
Request: EC50 under 400 nM? Item: CCn1c(CCC(=O)Nc2cccc3ccccc23)nnc1CCC(C)(C)C
Result: Criterion not met

* * *

Measured remaining at 10 min, listed per entry for reference.
# TEST_NAME: Metabolic stability in human liver microsomes assessed as parent compound remaining incubated for 10 mins
# Assay type: ADME
# CONDITION_DETAILS: read-out: Stability
Respond numerically; units are % and should not be typed.

• CCn1c(CCC(=O)Nc2ccc(C)cc2C)nnc1CCC1CCCCC1 = 36

Pending compound:
Request: Fill in the blank: the reported remaining at 10 min of CCn1c(SCC(=O)Nc2cccc3ccccc23)nnc1C1Cc2ccccc2C1 is ____.
Result: 18

* * *

# MEASURED_ON: Cytochrome P450 3A4 (Homo sapiens, UniProt P08684)
# Sequence (P08684 whole entry): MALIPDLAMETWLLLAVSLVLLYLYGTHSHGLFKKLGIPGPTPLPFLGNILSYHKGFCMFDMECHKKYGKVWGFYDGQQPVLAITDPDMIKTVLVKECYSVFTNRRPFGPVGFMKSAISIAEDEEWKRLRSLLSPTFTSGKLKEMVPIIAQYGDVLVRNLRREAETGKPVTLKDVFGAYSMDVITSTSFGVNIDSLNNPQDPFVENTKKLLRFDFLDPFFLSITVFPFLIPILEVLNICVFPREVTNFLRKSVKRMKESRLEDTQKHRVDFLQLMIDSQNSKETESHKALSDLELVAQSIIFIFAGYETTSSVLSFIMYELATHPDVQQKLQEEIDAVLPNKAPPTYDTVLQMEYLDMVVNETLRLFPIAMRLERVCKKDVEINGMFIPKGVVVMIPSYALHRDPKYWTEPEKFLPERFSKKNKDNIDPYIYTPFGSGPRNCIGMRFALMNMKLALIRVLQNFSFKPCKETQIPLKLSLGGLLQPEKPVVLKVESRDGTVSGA
# TEST_NAME: Inhibition of CYP3A4 in human liver microsomes using midazolam as substrate preincubated with substrate for 5 mins followed by NADPH addition measured after 20 mins by HPLC analysis
# Format: ADME
REPORTED_ENDPOINT: IC50 (µM)
Numeric only. Scale: µM

Request: What IC50 appears in the records for this molecule with Cytochrome P450 3A4 (Homo sapiens, UniProt P08684)? Cc1ccc(NC(=O)[C@H]2C[C@@H](O)C[C@@H]2c2nnc([C@H]3C[C@@H](CC(C)C)C3)n2C2CC2)c(C)c1
Result: 3

Request: Please state recorded IC50 (tested on Cytochrome P450 3A4 (Homo sapiens, UniProt P08684)) of Cc1ccc(NC(=O)CCc2nnc([C@H]3C[C@@H](CC(C)C)C3)n2C2CC2)c(C)c1
Result: 5

* * *

# TEST_NAME: Metabolic stability in liver S9 fraction (unknown origin) assessed as parent compound remaining incubated for 10 mins
# Type: ADME, subcellular
# CONDITION_DETAILS: human, read-out: Stability
# thresholds on remaining at 10 min define classes: lower range: < 60%; middle range: ≥ 60% and < 80%; upper range: ≥ 80%

Worked set:
- Cc1ccc(NC(=O)CCc2nnc(CCC3CCCCC3)n2C2CC2(F)F)c(C)c1 (centres undefined): middle range
- Cc1ccc(NC(=O)CCc2nnc(CCC3CCCCC3)n2C2CCC2)c(C)c1: lower range
- Cc1ccc(NC(=O)CCc2nnc([C@H]3C[C@H](CC(C)C)C3)n2C2CC2)c(C)c1: middle range
- CCC(C)CCc1nnc(CCC(=O)Nc2ccc(C)cc2C)n1C1CC1 (racemic): middle range
- Cc1ccc(NC(=O)[C@H]2CN(C)CC[C@@H]2c2nnc([C@H]3C[C@@H](CC(C)C)C3)n2C2CC2)c(C)c1 (racemic): lower range
- CCn1c(CCC(=O)Nc2ccc(C)cc2C)nnc1CCC1CCCCC1: lower range
- Cc1ccc(NC(=O)CCc2nnc([C@H]3C[C@@H](CC(C)C)C3)n2C2CC2)c(C)c1: middle range
- Cc1ccc(NC(=O)CCc2nnc(CCCC(C)(C)C)n2C2CC2)c(C)c1: middle range

Request: Into which category would you place CC(=O)N1C[C@H](C(=O)Nc2ccc(C)cc2C)[C@@H](c2nnc([C@H]3C[C@@H](CC(C)C)C3)n2C2CC2)C1 ?
Result: upper range
